Field: Drug uptake. Provide a value for each of the compounds that follow.
# Tested on: Caudate
# PROTOCOL_TEXT: Drug uptake in anesthetized cynomolgus monkey brain caudate after 2.5 mins postinjection
# Format: ADME, organism-based, Macaca fascicularis, Caudate nucleus
# EXPERIMENTAL_CONTEXT: in vivo
I'd appreciate a reply containing only the number, no unit.

Request: Send back Caudate Drug uptake of O=C(OCCC[18F])C1C2CCC(CC1c1cccc(/C=C\I)c1)N2 (stereo not given) only.
Result: 0.64

Request: Fill in: Drug uptake on Caudate, entry O=C(OCC[18F])C1C2CCC(CC1c1cccc(/C=C\Br)c1)N2 (stereo not given)
Result: 0.36

Request: Output reported Drug uptake of the compound O=C(OCC[18F])C1C2CCC(CC1c1ccc(/C=C\I)cc1)N2 (stereo not given) on Caudate.
Result: 0.29

Request: Give measured Drug uptake for O=C(OCCC[18F])C1C2CCC(CC1c1cccc(/C=C\Br)c1)N2 (stereo not given) (Caudate).
Result: 0.83

Request: Provide Drug uptake, system Caudate, entry O=C(OCC[18F])C1C2CCC(CC1c1cccc(/C=C\I)c1)N2 (stereo not given)
Result: 0.37
